The following binders are shown together with reported EC50 values.
Biological target: T1, endogenous cell surface human MSLN (human, UniProt Q13421 296-598)
T1 construct: whole, on cells; The cell line is named under assay; also called cell-surface MSLN on NCI-H226, OVCAR-3 and AsPC-1 cells
T1 sequence (Q13421 other isoform, or with tags, fused parts or gaps limits assumed): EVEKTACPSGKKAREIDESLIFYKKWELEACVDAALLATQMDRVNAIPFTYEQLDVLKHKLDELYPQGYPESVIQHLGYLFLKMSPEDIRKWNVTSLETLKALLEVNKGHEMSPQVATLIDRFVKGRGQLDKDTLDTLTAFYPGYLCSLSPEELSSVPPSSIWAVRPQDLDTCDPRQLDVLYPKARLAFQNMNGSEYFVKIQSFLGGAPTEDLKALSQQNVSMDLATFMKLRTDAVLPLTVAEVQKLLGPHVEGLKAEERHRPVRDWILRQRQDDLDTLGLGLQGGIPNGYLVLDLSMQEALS
Experiment: flow cytometry, NCI-H226 cells + 20 nM soluble MSLN

{"Binder": "FS22-172-003-AA/FS28-024-060 (bispecific antibody, human IgG1, kappa, L234A L235A, V domains shown, IgG1 mAb^2 with LALA) VH: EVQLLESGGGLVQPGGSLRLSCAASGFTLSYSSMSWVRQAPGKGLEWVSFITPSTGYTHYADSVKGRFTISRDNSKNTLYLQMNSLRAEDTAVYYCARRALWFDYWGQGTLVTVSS VL: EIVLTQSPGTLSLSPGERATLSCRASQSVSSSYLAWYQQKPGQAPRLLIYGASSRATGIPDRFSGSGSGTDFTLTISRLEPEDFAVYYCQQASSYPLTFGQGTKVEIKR", "EC50 [nM]": 4.69}
{"Binder": "FS22-172-003-AA/FS28-256-024 (bispecific antibody, human IgG1, kappa, L234A L235A, V domains shown, IgG1 mAb^2 with LALA) VH: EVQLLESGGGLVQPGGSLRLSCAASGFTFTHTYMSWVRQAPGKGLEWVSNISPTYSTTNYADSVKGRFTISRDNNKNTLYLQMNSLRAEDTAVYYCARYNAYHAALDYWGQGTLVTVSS VL: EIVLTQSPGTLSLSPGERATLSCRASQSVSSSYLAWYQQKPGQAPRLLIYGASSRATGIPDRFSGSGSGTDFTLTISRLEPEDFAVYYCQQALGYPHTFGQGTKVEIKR", "EC50 [nM]": 5.24}
{"Binder": "FS22-172-003-AA/FS28-256-023 (bispecific antibody, human IgG1, kappa, L234A L235A, V domains shown, IgG1 mAb^2 with LALA) VH: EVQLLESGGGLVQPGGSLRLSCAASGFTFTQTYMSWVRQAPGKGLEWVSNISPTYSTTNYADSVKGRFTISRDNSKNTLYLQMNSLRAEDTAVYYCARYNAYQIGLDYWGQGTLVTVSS VL: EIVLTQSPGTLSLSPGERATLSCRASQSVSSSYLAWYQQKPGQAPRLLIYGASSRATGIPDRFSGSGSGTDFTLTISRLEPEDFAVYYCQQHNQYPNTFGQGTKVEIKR", "EC50 [nM]": 2.13}
